measurementTarget: Ephrin type-A receptor 3 (Homo sapiens);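 also: mean inhibition value reported from the GSK PKIS kinase profiling screen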
recordedConditions: at 1 µM
Measured inhibition accompanies every entry in the list below.
Provide the reading as a plain figure in %.

Some solved entries appear below for comparison.
smilestext=Fc1ccc(-c2nn3ncccc3c2-c2ccnc(Nc3ccc4c(c3)OCCO4)n2)cc1 reportedmeasurement=18.2
smilestext=CNC(=O)c1cccc(C#Cc2cncnc2Nc2ccc(OCc3cccc(F)c3)c(Cl)c2)c1 reportedmeasurement=0.39
smilestext=COc1cc(/C=N/Nc2ncnc3[nH]ncc23)ccc1O reportedmeasurement=16.5
smilestext=COc1ccc2[nH]c3c4[nH]c5ccc(OC)cc5c4c4c(c3c2c1)C(=O)NC4=O reportedmeasurement=6.32

Consider the compound Fc1ccc(-c2cc(-c3c[nH]nc3-c3ccccn3)ccn2)cc1 and give its recorded inhibition.
4.31

Consider the compound O=C(O[C@H]1CN[C@H](C#Cc2cc3ncnc(Nc4ccc(Cc5ccccc5)cc4)c3s2)C1)N1CCOCC1 and give its recorded inhibition.
3.5

Consider the compound COc1ccc(-c2cc3c(N)ncnc3o2)cc1 and give its recorded inhibition.
-2.59

Consider the compound COc1cccc(-n2ncc3c(N/N=C/c4ccc(F)cc4)ncnc32)c1 and give its recorded inhibition.
4.06

Consider the compound N#Cc1c(NC(=O)CN2CCOCC2)sc2c1CCCC2 and give its recorded inhibition.
6.42

Consider the compound CCn1c(-c2nonc2N)nc2c(C#CC(C)(C)O)ncc(OC3CCNCC3)c21 and give its recorded inhibition.
3.69

Consider the compound Nc1ncc(-c2cccc(S(N)(=O)=O)c2)c2scc(-c3ccc(F)c(Cl)c3)c12 and give its recorded inhibition.
68.6

Consider the compound CCN(CC)S(=O)(=O)c1ccc(OC)c(Nc2ncc(-c3ccccc3)o2)c1 and give its recorded inhibition.
2.35

* * *

measurementTarget: Serine/threonine-protein kinase Nek6 (Homo sapiens);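 also: values are the mean percent inhibition of NEK6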
recordedConditions: at 0.1 µM
readoutName: inhibition (%)
Provide the reading as a plain figure in %.

Some solved entries appear below for comparison.
smilestext=c1ccc(-c2nc3n(c2-c2ccc4c(c2)OCO4)CCC3)nc1 measurementtarget="Serine/threonine-protein kinase Nek6 (Homo sapiens)" reportedmeasurement=1.4
smilestext=CS(=O)(=O)CCNCc1coc(-c2ccc3ncnc(Nc4ccc(OCc5ccccc5)cc4)c3c2)c1 measurementtarget="Serine/threonine-protein kinase Nek6 (Homo sapiens)" reportedmeasurement=1.54
smilestext=CCn1c(-c2nonc2N)nc2c(C#CC(C)(C)O)ncc(OC3CCNCC3)c21 measurementtarget="Serine/threonine-protein kinase Nek6 (Homo sapiens)" reportedmeasurement=-0.18
smilestext=COc1ccc(-c2oc3ncnc(N)c3c2-c2ccc(NC(=O)Nc3cc(C(F)(F)F)ccc3F)cc2)cc1 measurementtarget="Serine/threonine-protein kinase Nek6 (Homo sapiens)" reportedmeasurement=2.43

// switching to the query compound
Consider the compound Nc1ncc(-c2cccc(S(N)(=O)=O)c2)c2scc(-c3ccc(F)c(Cl)c3)c12 and give its recorded inhibition.
2.28

* * *

measurementTarget: Testis-specific serine/threonine-protein kinase 2 (Homo sapiens) (UniProt Q96PF2);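 also: values are mean inhibition of TSSK2 activity from the GSK PKIS profiling panel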
Sequence (Q96PF2 whole entry): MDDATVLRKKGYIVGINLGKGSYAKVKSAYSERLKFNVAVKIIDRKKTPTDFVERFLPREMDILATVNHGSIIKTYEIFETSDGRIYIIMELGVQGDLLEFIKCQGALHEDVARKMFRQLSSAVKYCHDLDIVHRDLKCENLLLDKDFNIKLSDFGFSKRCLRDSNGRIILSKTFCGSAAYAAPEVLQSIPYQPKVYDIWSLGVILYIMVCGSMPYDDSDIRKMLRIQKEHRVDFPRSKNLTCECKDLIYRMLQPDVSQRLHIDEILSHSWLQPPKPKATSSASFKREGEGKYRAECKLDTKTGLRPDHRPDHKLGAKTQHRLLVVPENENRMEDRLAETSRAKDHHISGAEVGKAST
recordedConditions: at 0.1 µM
readoutName: inhibition (%)
Provide the reading as a plain figure in %.

smilestext=CNC(=O)c1cc(-c2ccc(F)cc2)cc(-c2ccc(S(=O)(=O)N3CCCC3)cc2)c1N readoutname=inhibition unitannotation=% reportedmeasurement=1.51
smilestext=COc1cc(/C=N/Nc2ncnc3[nH]ncc23)ccc1O readoutname=inhibition unitannotation=% reportedmeasurement=3.14
smilestext=CNC(=O)c1cccc(C#Cc2cncnc2Nc2ccc(OCc3cccc(F)c3)c(Cl)c2)c1 readoutname=inhibition unitannotation=% reportedmeasurement=1.7
smilestext=CCN(CC)S(=O)(=O)c1ccc(OC)c(Nc2ncc(-c3ccccc3)o2)c1 readoutname=inhibition unitannotation=% reportedmeasurement=-0.73
smilestext=COC(=O)c1sc(-n2cnc3cc(OC)c(OC)cc32)cc1OCc1ccccc1C(F)(F)F readoutname=inhibition unitannotation=% reportedmeasurement=2.04

// switching to the query molecule
Consider the molecule CCN1CCC(CC(=O)Nc2n[nH]c3nnc(-c4cccc(F)c4F)cc23)CC1 and give its recorded inhibition.
3.15

Value source: ChEMBL document CHEMBL1961873
